Origin of the recorded values: patent US6979686B1

- measuredOn: human p38 kinase alpha (Homo sapiens, UniProt Q16539)
- Construct: GST (N, cleaved yes); made in house; host or cells: E. coli DH10B
- Sequence (Q16539 whole entry): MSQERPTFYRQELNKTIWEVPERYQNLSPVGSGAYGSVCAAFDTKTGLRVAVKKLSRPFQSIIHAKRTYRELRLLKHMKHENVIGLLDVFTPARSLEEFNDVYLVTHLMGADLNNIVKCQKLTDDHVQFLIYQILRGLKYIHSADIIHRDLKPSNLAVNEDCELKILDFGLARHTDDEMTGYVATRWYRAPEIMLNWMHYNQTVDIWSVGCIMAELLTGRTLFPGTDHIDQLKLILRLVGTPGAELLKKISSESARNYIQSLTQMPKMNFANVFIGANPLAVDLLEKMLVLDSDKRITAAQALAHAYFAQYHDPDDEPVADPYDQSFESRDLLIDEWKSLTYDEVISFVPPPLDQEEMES
- experimentDescription: p38 kinase in vitro assay, phosphorylation of biotinylated PHAS-I with 32P-ATP
- Assay type: biochemical
- testParameters: in vitro P38-alpha kinase inhibition; read-out: P38 alpha kinase IC50
- Procedure: The coding region of the human p38a cDNA was obtained by PCR-amplification from RNA isolated from the human monocyte cell line THP.1. […] Random primer, dNTP's and Superscript™ reagents were all purchased from Life-Technologies, Gaithersburg, Mass. The reaction was incubated at 42° C. for 1 hour. […]
pIC50: −log10 of the molar value.
experimentalReadout: pIC50

CC(NC(=O)C1CC1)c1[nH]nc(-c2ccc(F)cc2)c1-c1ccncc1 (stereo not drawn) [Example B-0538]; 5.95

1. CC(NC(=O)Nc1cccc(F)c1)c1[nH]nc(-c2ccc(F)cc2)c1-c1ccncc1 (stereo not drawn) [Example B-0595]
2. CC(C)C(=O)NC(Cc1ccccc1)c1[nH]nc(-c2ccc(F)cc2)c1-c1ccncc1 (stereo not drawn) [Example B-0831]
3. O=C(Nc1cccc(F)c1)NC(Cc1ccccc1)c1[nH]nc(-c2ccc(F)cc2)c1-c1ccncc1 (stereo not drawn) [Example B-0740]
4. Cc1c(Cl)cccc1S(=O)(=O)NCCc1[nH]nc(-c2ccc(F)cc2)c1-c1ccncc1 [Example B-1075]
5. COc1ccc(NC(=O)NC(Cc2ccccc2)c2[nH]nc(-c3ccc(F)cc3)c2-c2ccncc2)cc1 (stereo not drawn) [Example B-0741]
Req: Order these by pIC50, descending, and give the full ranking. # respond with the labels, arranged in the requested order
Resp: 4, 2, 1, 3, 5
(4: 7.52, 2: 6.05, 1: 5.62, 3: 5.36, 5: 4.59)

###

- measuredOn: human p38 kinase alpha (Homo sapiens, UniProt Q16539)
- Construct: GST (N, cleaved yes); made in house; host or cells: E. coli DH10B
- experimentDescription: p38 kinase in vitro assay, phosphorylation of biotinylated PHAS-I with 32P-ATP
- Assay type: biochemical
- testParameters: in vitro P38-alpha kinase; read-out: P38 alpha kinase IC50
pIC50: −log10 of the molar value.
experimentalReadout: pIC50

I. COc1ccc(Br)cc1S(=O)(=O)N1CCC(c2[nH]nc(-c3ccc(F)cc3)c2-c2ccncc2)CC1 [Example B-1446]
II. Cc1noc(C)c1S(=O)(=O)N1CCC(c2[nH]nc(-c3ccc(F)cc3)c2-c2ccncc2)CC1 [Example B-1435]
III. O=C(NCCCc1[nH]nc(-c2ccc(F)cc2)c1-c1ccncc1)c1ccc(F)cc1C(F)(F)F [Example B-1340]
IV. O=C(NCCCc1[nH]nc(-c2ccc(F)cc2)c1-c1ccncc1)c1ccc(Cl)cc1Cl [Example B-1345]
Req: Which order do these items fall in when sorted by pIC50 from largest to smallest? # respond with the labels, arranged in the requested order
Resp: III, IV, I, II
(III: 7.37, IV: 6.57, I: 6.11, II: 5.74)

1. O=S(=O)(c1cccc(Cl)c1Cl)N1CCC(c2[nH]nc(-c3ccc(F)cc3)c2-c2ccncc2)CC1 [Example B-1448]
2. O=C(NCCCc1[nH]nc(-c2ccc(F)cc2)c1-c1ccncc1)c1ccc(F)c(C(F)(F)F)c1 [Example B-1341]
Req: Return label of the item with the larger pIC50. Candidates: 1 , 2 . Use the label to indicate which entry you chose.
Resp: 2
(2: 6.38, 1: 5.84)

a. Cc1c(-c2ccncc2)c(-c2ccc(F)cc2)nn1CC(=O)NCCCOC(C)C [Example B-2313]
b. COc1ccc2[nH]cc(CCNC(=O)Cn3nc(-c4ccc(F)cc4)c(-c4ccncc4)c3C)c2c1 [Example B-2296]
Req: // compare: a vs b , metric pIC50, want the smaller Use the label to indicate which entry you chose.
Resp: a

a. O=S(=O)(c1c(F)cccc1F)N1CCC(c2[nH]nc(-c3ccc(F)cc3)c2-c2ccncc2)CC1 [Example B-1455]
b. O=C(c1ccncc1)N1CCC(c2[nH]nc(-c3ccc(F)cc3)c2-c2ccncc2)CC1 [Example B-1373]
c. COc1cc(CNC(=O)Cn2nc(-c3ccc(F)cc3)c(-c3ccncc3)c2C)cc(OC)c1OC [Example B-2297]
d. CCOC(=O)N1CCC(c2[nH]nc(-c3ccc(F)cc3)c2-c2ccncc2)CC1 [Example B-1422]
Req: Number of molecules to sort: 4. Sort criterion: pIC50, ascending. # respond with the labels, arranged in the requested order
Resp: c, a, d, b
(c: 5.44, a: 5.92, d: 6.24, b: 7.80)
